System: Escherichia coli TOP10
Experiment: shrunken log2 fold change of peptide-encoding DNA abundance (4.5 h post-induction vs induction); higher = less antimicrobial activity (less host growth inhibition)
Conditions: time post-induction: 4.5 h; library: site-saturation at positions 5, 18, 19, 20
Lab note: compare shrunken log2 fold change against -0.03. Equal or greater, write t. Smaller, write f.

Answered examples (10):
{"input_sequence": "RRIRFRPPRLPRPRPRPFAKPRP", "target_or_test_system": "Escherichia coli TOP10", "group_label": "t"}
{"input_sequence": "RRIRVRPPRLPRPRPRPTWWPRP", "target_or_test_system": "Escherichia coli TOP10", "group_label": "t"}
{"input_sequence": "RRIRQRPPRLPRPRPRPYEKPRP", "target_or_test_system": "Escherichia coli TOP10", "group_label": "f"}
{"input_sequence": "RRIRRRPPRLPRPRPRPPAFPRP", "target_or_test_system": "Escherichia coli TOP10", "group_label": "t"}
{"input_sequence": "RRIRFRPPRLPRPRPRPPIWPRP", "target_or_test_system": "Escherichia coli TOP10", "group_label": "t"}
{"input_sequence": "RRIRHRPPRLPRPRPRPDPDPRP", "target_or_test_system": "Escherichia coli TOP10", "group_label": "f"}
{"input_sequence": "RRIRMRPPRLPRPRPRPATHPRP", "target_or_test_system": "Escherichia coli TOP10", "group_label": "t"}
{"input_sequence": "RRIRGRPPRLPRPRPRPYWHPRP", "target_or_test_system": "Escherichia coli TOP10", "group_label": "f"}
{"input_sequence": "RRIRDRPPRLPRPRPRPDHVPRP", "target_or_test_system": "Escherichia coli TOP10", "group_label": "t"}
{"input_sequence": "RRIRIRPPRLPRPRPRPNALPRP", "target_or_test_system": "Escherichia coli TOP10", "group_label": "f"}

Incoming: Kindly determine if shrunken log2 fold change recorded for RRIRRRPPRLPRPRPRPCFTPRP is above or exactly -0.03.
Outgoing: f

Incoming: Kindly determine if shrunken log2 fold change recorded for RRIRYRPPRLPRPRPRPPELPRP is above or exactly -0.03.
Outgoing: t

Incoming: Kindly determine if shrunken log2 fold change recorded for RRIRYRPPRLPRPRPRPDQRPRP is above or exactly -0.03.
Outgoing: f

Incoming: Kindly determine if shrunken log2 fold change recorded for RRIRERPPRLPRPRPRPDYAPRP is above or exactly -0.03.
Outgoing: t

Incoming: Kindly determine if shrunken log2 fold change recorded for RRIRKRPPRLPRPRPRPPIYPRP is above or exactly -0.03.
Outgoing: t

* * *

Test system: Escherichia coli TOP10;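 note: peptides expressed intracellularly from a pBAD plasmid library in pooled LB shake-flask culture, induced with 0.3% L-arabinose, DNA abundance read by NGS, three biological replicates, DESeq2 with apeglm shrinkage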
Experiment: shrunken log2 fold change of peptide-encoding DNA abundance (4.5 h post-induction vs induction); higher = less antimicrobial activity (less host growth inhibition)
Settings: time post-induction: 4.5 h; library: site-saturation at positions 5, 18, 19, 20
value_type: shrunken log2 fold change
Enter the number alone.

Incoming: Recorded shrunken log2 fold change for RRIRCRPPRLPRPRPRPDAIPRP , please?
Outgoing: -0.0147

Incoming: Recorded shrunken log2 fold change for RRIRRRPPRLPRPRPRPVPNPRP , please?
Outgoing: 0.353

Incoming: Recorded shrunken log2 fold change for RRIRARPPRLPRPRPRPWYYPRP , please?
Outgoing: -0.628
